The origin of these recorded values is paper PMC9823097.

# Test system: HG3 cells
# measurement notes: Cell growth curves over 12 days, HG3
# Type: cell-based
# test settings: HG3, 1 µM, day 12
endpoint label: Rep 1 Live Cells [Fold Change]
Answer format reminder: number followed by unit.

For orientation, consider the following solved cases.
compound="Nc1ncnc2c1ccn2C1OC(C(O)c2ccc(Cl)c(F)c2)C(O)C1O (centres unmarked)" result="2.641 Fold Change"
compound=CON=c1nc[nH]c2c1ccn2[C@@H]1O[C@H]([C@H](O)c2ccc(Cl)c(Cl)c2)[C@@H](O)[C@H]1O.Cl result="1.11 Fold Change"
compound=Nc1ncnc2c1ccn2[C@@H]1O[C@H]([C@H](O)c2ccccc2)[C@@H](O)[C@H]1O result="1.832 Fold Change"
compound=Nc1nc2cc(CC[C@H]3C[C@@H](n4ccc5c(N)ncnc54)[C@H](O)[C@@H]3O)ccc2cc1Br result="2.347 Fold Change"

# input for lookup
Entry O=C(NC[C@H](O)CN1CCc2ccccc2C1)c1cc(NC2COC2)ncn1 under HG3 cells had Rep 1 Live Cells [Fold Change] of 608.205 Fold Change

* * *

Entries and their measured Rep 2 Live Cells [Fold Change] follow.
# System: Mec-1 cells
# measurement notes: Cell growth curves over 12 days, Mec-1
# Format: cell-based
# test settings: Mec-1, 1 µM, day 6
Answer format reminder: number followed by unit.

The recorded Rep 2 Live Cells [Fold Change] for O=C(NC[C@H](O)CN1CCc2ccccc2C1)c1cc(NC2COC2)ncn1 is 38.4384 Fold Change

The recorded Rep 2 Live Cells [Fold Change] for Nc1nc2cc(CC[C@H]3C[C@@H](n4ccc5c(N)ncnc54)[C@H](O)[C@@H]3O)ccc2cc1Br is 2.27 Fold Change

The recorded Rep 2 Live Cells [Fold Change] for Nc1ncnc2c1ccn2[C@@H]1O[C@H]([C@H](O)c2ccccc2)[C@@H](O)[C@H]1O is 5.92 Fold Change

The recorded Rep 2 Live Cells [Fold Change] for CON=c1nc[nH]c2c1ccn2[C@@H]1O[C@H]([C@H](O)c2ccc(Cl)c(Cl)c2)[C@@H](O)[C@H]1O.Cl is 5.09 Fold Change

The recorded Rep 2 Live Cells [Fold Change] for Nc1ncnc2c1ccn2C1OC(C(O)c2ccc(Cl)c(F)c2)C(O)C1O (centres unmarked) is 5.993 Fold Change

* * *

# Tested on: CCMCL-1
# measurement notes: Anti-proliferative activity, MTS assay, CCMCL-1
# Type: cell-based
# test settings: MCL, read-out: PRT382 IC50 (anti-proliferative)
endpoint label: IC50
Answer format reminder: number followed by unit.

The recorded IC50 for CON=c1nc[nH]c2c1ccn2[C@@H]1O[C@H]([C@H](O)c2ccc(Cl)c(Cl)c2)[C@@H](O)[C@H]1O.Cl is 14 nM

* * *

# System: HG3 cells
# measurement notes: Cell growth curves over 12 days, HG3
# Type: cell-based
# test settings: HG3, 1 µM, day 12
Assign Criterion met to entries whose Rep 2 Live Cells [Fold Change] meets or exceeds 5 Fold Change; assign Criterion not met to the rest.

Check if Rep 2 Live Cells [Fold Change] >= 5 Fold Change (inclusive). Item: CON=c1nc[nH]c2c1ccn2[C@@H]1O[C@H]([C@H](O)c2ccc(Cl)c(Cl)c2)[C@@H](O)[C@H]1O.Cl
Criterion met

Check if Rep 2 Live Cells [Fold Change] >= 5 Fold Change (inclusive). Item: Nc1ncnc2c1ccn2C1OC(C(O)c2ccc(Cl)c(F)c2)C(O)C1O (centres unmarked)
Criterion not met

Check if Rep 2 Live Cells [Fold Change] >= 5 Fold Change (inclusive). Item: O=C(NC[C@H](O)CN1CCc2ccccc2C1)c1cc(NC2COC2)ncn1
Criterion met

Check if Rep 2 Live Cells [Fold Change] >= 5 Fold Change (inclusive). Item: Nc1nc2cc(CC[C@H]3C[C@@H](n4ccc5c(N)ncnc54)[C@H](O)[C@@H]3O)ccc2cc1Br
Criterion not met

* * *

# measurement notes: Pharmacokinetics in dogs (clearance, oral bioavailability)
# Assay type: in vivo
# test settings: dog, in vivo, po, read-out: oral bioavailability (F%)
endpoint label: bioavailability

The recorded bioavailability for CON=c1nc[nH]c2c1ccn2[C@@H]1O[C@H]([C@H](O)c2ccc(Cl)c(Cl)c2)[C@@H](O)[C@H]1O.Cl [PRT382] is 70 to 80%

* * *

# Test system: Mec-1 cells
# measurement notes: Cell growth curves over 12 days, Mec-1
# Type: cell-based
# test settings: Mec-1, 1 µM, day 12
endpoint label: Rep 1 Live Cells [Fold Change] (Fold Change)
Field: numeric (Fold Change). Do not append units.

For orientation, consider the following solved cases.
molecule=CON=c1nc[nH]c2c1ccn2[C@@H]1O[C@H]([C@H](O)c2ccc(Cl)c(Cl)c2)[C@@H](O)[C@H]1O.Cl endpoint_label="Rep 1 Live Cells [Fold Change]" quantitative_result=3.31
molecule=Nc1nc2cc(CC[C@H]3C[C@@H](n4ccc5c(N)ncnc54)[C@H](O)[C@@H]3O)ccc2cc1Br endpoint_label="Rep 1 Live Cells [Fold Change]" quantitative_result=0.808
molecule="Nc1ncnc2c1ccn2C1OC(C(O)c2ccc(Cl)c(F)c2)C(O)C1O (centres unmarked)" endpoint_label="Rep 1 Live Cells [Fold Change]" quantitative_result=1.63
molecule=Nc1ncnc2c1ccn2[C@@H]1O[C@H]([C@H](O)c2ccccc2)[C@@H](O)[C@H]1O endpoint_label="Rep 1 Live Cells [Fold Change]" quantitative_result=1.89

# input for lookup
The recorded Rep 1 Live Cells [Fold Change] for O=C(NC[C@H](O)CN1CCc2ccccc2C1)c1cc(NC2COC2)ncn1 is 1825.77

* * *

# measurement notes: Pharmacokinetic study, oral gavage to CD-1 mice, blood analyzed by LC-MS/MS
# Assay type: in vivo
# test settings: 10 mg/kg, 1d-single dose, male CD-1 mice, fed, blood analysis, time 24 h
endpoint label: blood concentration at time point 24 h (ng/mL)
Field: numeric (ng/mL). Do not append units.

The recorded blood concentration at time point 24 h for CON=c1nc[nH]c2c1ccn2[C@@H]1O[C@H]([C@H](O)c2ccc(Cl)c(Cl)c2)[C@@H](O)[C@H]1O.Cl is 0

* * *

# measurement notes: Pharmacokinetic study, oral gavage to CD-1 mice, blood analyzed by LC-MS/MS
# Type: in vivo
# test settings: mouse, whole blood, po; 10 mg/kg, 1d-single dose, male CD-1 mice, fed, blood analysis, 0.5%CMC+0.5%Tween80
# Protocol: For in vitro assays, the compound was stored in a 10 mM solution in DMSO. […] Blood was collected at various time points after dosing into EDTA-K2 tubes, placed on ice, and stored at −80 °C prior to analysis by LC-MS/MS. […] For assessment of selectivity, enzyme activity against a panel of 37 methyltransferases was evaluated using 3H-SAM as a radioligand probe with filtration binding. […] The percent of enzyme activity relative to DMSO control condition was determined for each enzyme.
endpoint label: AUC(0-t) (ng·h/mL)
Field: numeric (ng·h/mL). Do not append units.

The recorded AUC(0-t) for CON=c1nc[nH]c2c1ccn2[C@@H]1O[C@H]([C@H](O)c2ccc(Cl)c(Cl)c2)[C@@H](O)[C@H]1O.Cl is 11600

* * *

# Test system: HG3 cells
# measurement notes: Cell growth curves over 12 days, HG3
# Format: cell-based
# test settings: HG3, 1 µM, day 10
endpoint label: Rep 2 Live Cells [Fold Change] (Fold Change)
Field: numeric (Fold Change). Do not append units.

For orientation, consider the following solved cases.
compound="Nc1ncnc2c1ccn2[C@@H]1O[C@H]([C@H](O)c2ccccc2)[C@@H](O)[C@H]1O [LLY-283]" quantitative_result=7.031
compound="CON=c1nc[nH]c2c1ccn2[C@@H]1O[C@H]([C@H](O)c2ccc(Cl)c(Cl)c2)[C@@H](O)[C@H]1O.Cl [PRT382]" quantitative_result=3.873
compound="Nc1nc2cc(CC[C@H]3C[C@@H](n4ccc5c(N)ncnc54)[C@H](O)[C@@H]3O)ccc2cc1Br [JNJ-64619178]" quantitative_result=0.4381
compound="O=C(NC[C@H](O)CN1CCc2ccccc2C1)c1cc(NC2COC2)ncn1 [EPZ015666]" quantitative_result=145.701

# input for lookup
The recorded Rep 2 Live Cells [Fold Change] for Nc1ncnc2c1ccn2C1OC(C(O)c2ccc(Cl)c(F)c2)C(O)C1O (centres unmarked) [PF-06855800] is 5.304

* * *

# measurement notes: Pharmacokinetics in mice (clearance, oral bioavailability, AUC)
# Format: in vivo
# test settings: mouse, in vivo, po, read-out: oral bioavailability (F%)
endpoint label: bioavailability

The recorded bioavailability for CON=c1nc[nH]c2c1ccn2[C@@H]1O[C@H]([C@H](O)c2ccc(Cl)c(Cl)c2)[C@@H](O)[C@H]1O.Cl [PRT382] is 70 to 80%

* * *

# measurement notes: Pharmacokinetic study, oral gavage to CD-1 mice, blood analyzed by LC-MS/MS
# Assay type: in vivo
# test settings: mouse, whole blood, po; 10 mg/kg, 1d-single dose, male CD-1 mice, fed, blood analysis, 0.5%CMC+0.5%Tween80
endpoint label: half-life (h)
Field: numeric (h). Do not append units.

The recorded half-life for CON=c1nc[nH]c2c1ccn2[C@@H]1O[C@H]([C@H](O)c2ccc(Cl)c(Cl)c2)[C@@H](O)[C@H]1O.Cl [PRT382] is 1.87
